Entry source: the CheMixHub viscosity set

method-summary: xn = mol fraction of the nth substance listed
settings: 303.15 K; 100 kPa; x2 = 0.5
quantity: viscosity (mPa·s)
Output spec: scalar in mPa·s, unitless text.

Worked cases, answers included:
molecule | measured-value
C1CC[C@H]2CCCC[C@H]2C1 + CC1CCCCC1 | 1.312
CC(CC(C)(C)C)CC(C)(C)CC(C)(C)C (stereo not given) + CC1CCCCC1 | 1.556
CC(CC(C)(C)C)CC(C)(C)CC(C)(C)C (stereo not given) + CCCCCCCCCCCCC | 2.07
CCCCNCCCC + CCCCOCCO | 1.83

Attention now turns to another entry.
Which value of viscosity has been reported for CC(CC(C)(C)C)CC(C)(C)CC(C)(C)C (stereo not given) + C1CC[C@H]2CCCC[C@H]2C1 in the records?
2.797
